# Target under test: KAT8 Full length enzyme (Homo sapiens (Human), UniProt Q9H7Z6)
# Sequence (Q9H7Z6 whole entry): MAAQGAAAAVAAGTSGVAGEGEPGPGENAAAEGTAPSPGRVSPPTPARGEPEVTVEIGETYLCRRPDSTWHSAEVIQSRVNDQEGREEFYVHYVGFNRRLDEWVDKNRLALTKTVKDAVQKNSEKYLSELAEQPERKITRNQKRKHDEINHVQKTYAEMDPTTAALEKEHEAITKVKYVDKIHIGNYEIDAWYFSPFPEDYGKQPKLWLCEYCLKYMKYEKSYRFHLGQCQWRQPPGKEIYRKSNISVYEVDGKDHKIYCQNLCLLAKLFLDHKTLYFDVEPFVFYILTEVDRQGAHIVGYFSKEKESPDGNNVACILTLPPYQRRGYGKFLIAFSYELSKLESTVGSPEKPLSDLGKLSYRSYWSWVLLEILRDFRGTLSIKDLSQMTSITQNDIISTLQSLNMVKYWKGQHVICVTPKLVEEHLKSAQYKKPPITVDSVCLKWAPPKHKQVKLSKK
# Procedure text: KAT8 assay (SAMDI-MS acetylation of H3 1-21 peptide)
# Assay type: biochemical
# Assay setup: Morrison equation fit; replicate number in parentheses; read-out: KAT8 Ki (nM) (replicate number)
Cut-off 700 nM on Ki: below means label 1, at or above means label 0.

Observe how each entry below is paired with its result.
COc1cccc(OC)c1S(=O)(=O)Nc1noc2cc(Nc3cccnn3)cc(OC)c12; label 0
COc1cc2c(NS(=O)(=O)c3c(OC)cccc3OC3CCC3)noc2cc1Nc1cc[nH]n1; label 0
COc1cccc(OC)c1S(=O)(=O)Nc1noc2cc(Nc3cc[nH]n3)cc(OC)c12; label 1
COc1cccc(OC2CC2)c1S(=O)(=O)Nc1noc2cc(Nc3cc(C4CC4)n[nH]3)c(F)c(OC)c12; label 0
CCc1cc(Nc2cc3onc(NS(=O)(=O)c4ccc(-c5ccccc5)cc4)c3cc2OC)n[nH]1; label 0

Bench note: check whether COc1cc2c(NS(=O)(=O)c3c(OC)cccc3OC)noc2cc1Nc1cc([C@@H]2CC2(F)F)[nH]n1 (single isomer, unassigned) shows Ki below 700 nM label 0

----------
Provide the recorded Ki for the entries that follow.
# Target under test: KAT7+JADE1+EAF6+ING5 4 protein complex (Homo sapiens (Human), UniProt O95251)
# Procedure text: KAT7 JADE1 assay (SAMDI-MS acetylation of H3 1-21 peptide)
# Type: biochemical
# Assay setup: replicate number in parentheses; read-out: KAT7 JADE1 Ki (nM) (replicate)
Answers are plain numbers, in nM.

COc1cc2c(NS(=O)(=O)c3c(OC)cc(N(C)C4COC4)cc3OC)noc2cc1Nc1cc(C2CC2)n[nH]1; 5.8

Batch lookup, Ki per entry.
1. COc1cc2c(NS(=O)(=O)c3c(OC)cc(C4CCOCC4)cc3OC)noc2cc1Nc1cc(C2CC2)n[nH]1
2. COc1cc2c(NS(=O)(=O)c3c(OC)cc(N(C)C4CCOC4)cc3OC)noc2cc1Nc1cc(C2CC2)[nH]n1 (stereo not drawn)
3. COc1cc2c(NS(=O)(=O)c3c(OC)cc(C(=O)N4CCC(F)(F)C4)cc3OC)noc2cc1Nc1cc(C2CC2)n[nH]1
4. COc1cc2c(NS(=O)(=O)c3c(OC)cc(C(=O)N4CC[C@@H](F)C4)cc3OC)noc2cc1Nc1cc(C2CC2)n[nH]1
5. COc1cc2c(NS(=O)(=O)c3c(OC)cc(C(C)OC)cc3OC)noc2cc1Nc1cc(C2CC2)[nH]n1 (single isomer, unassigned) [Example 273]
6. COc1cc2c(NS(=O)(=O)c3c(OC)cc(C4CCO4)cc3OC)noc2cc1Nc1cc(C2CC2)n[nH]1 (stereo not drawn)

1. 2.3
2. 2.7
3. 9.5
4. 5.9
5. 4.7
6. 16.8

Batch lookup, Ki per entry.
1. COc1cc2c(NS(=O)(=O)c3c(OC)cc(C(=O)N4CC[C@H](F)C4)cc3OC)noc2cc1Nc1cc(C2CC2)n[nH]1
2. COc1cc2c(NS(=O)(=O)c3c(OC)cc(C4CCCOC4)cc3OC)noc2cc1Nc1cc(C2CC2)n[nH]1 (single isomer, unassigned) [Example 269]
3. COc1cc2c(NS(=O)(=O)c3c(OC)cc(C(=O)N4CCC(F)(F)CC4)cc3OC)noc2cc1Nc1cc(C2CC2)n[nH]1
4. COCc1cc(OC)c(S(=O)(=O)Nc2noc3cc(Nc4cc(C5CC5)n[nH]4)c(OC)cc23)c(OC)c1
5. COc1cc2c(NS(=O)(=O)c3c(OC)cc(N4C(=O)CCC45CCC5)cc3OC)noc2cc1Nc1cc(C2CC2)n[nH]1

6.7
6.1
9.8
13.5
4.2

----------
Provide the recorded Ki for the entries that follow.
# Target under test: KAT7+BRPF2+EAF6+ING5 4 protein complex (Homo sapiens (Human))
# Procedure text: KAT7 BRPF2 assay (SAMDI-MS acetylation of H3 1-21 peptide)
# Type: biochemical
# Assay setup: Morrison equation fit; replicate number in parentheses; read-out: KAT7 BRPF2 Ki (nM) (replicate number)
Numbers only, in nM.

COc1cc2c(NS(=O)(=O)c3c(OC)cccc3OC)noc2cc1Nc1cc(C)n[nH]1; 10.1
COc1cc2c(NS(=O)(=O)c3cc(C(C)C)c(C)cc3OC)noc2cc1Nc1cc[nH]n1; 71.5
CCOc1ccccc1S(=O)(=O)Nc1noc2cc(Nc3cc(C(C)C)[nH]n3)c(OC)cc12; 76.2
COc1cccc(OC)c1S(=O)(=O)Nc1noc2cc(Nc3ncc[nH]3)cc(OC)c12; 100
COc1cc2c(NS(=O)(=O)c3ccccc3OC)noc2cc1Nc1cc(C(C)C)[nH]n1; 85.4
CCOc1cccc(OC)c1S(=O)(=O)Nc1noc2cc(Nc3cc(C)[nH]n3)c(OC)cc12; 5.5

Batch lookup, Ki per entry.
1. COc1cc2c(NS(=O)(=O)c3ccccc3OC)noc2cc1Nc1cc(C)n[nH]1
2. CCOc1cc(C)c(F)cc1S(=O)(=O)Nc1noc2cc(Nc3cc[nH]n3)c(OC)cc12

[50.5, 162]

----------
Provide the recorded Ki for the entries that follow.
# Target under test: UniProtKB Q92794
# Procedure text: KAT6A assay (SAMDI-MS acetylation of H3 1-21 peptide)
# Assay type: biochemical
# Assay setup: Morrison equation fit; replicate number in parentheses; read-out: KAT6A Ki (nM) (replicate number)
Give bare numbers, in nM.

COc1cc2c(NS(=O)(=O)c3c(OC)cc(-c4cnn(C)n4)cc3OC)noc2cc1Nc1cc(C2CC2)n[nH]1; 0.7
COc1cc2c(NS(=O)(=O)c3c(OC)cc(C4CCCN(CC(F)(F)F)C4)cc3OC)noc2cc1Nc1cc(C2CC2)n[nH]1 (single isomer, unassigned) [Example 169]; 0.5
COc1cc2c(NS(=O)(=O)c3c(OC)cc(C4CCCCN4C)cc3OC)noc2cc1Nc1cc(C2CC2)n[nH]1 (single isomer, unassigned) [Example 172]; 4.4
COc1cc2c(NS(=O)(=O)c3c(OC)cc(C4CCCN([C@@H]5CCOC5)C4)cc3OC)noc2cc1Nc1cc(C2CC2)n[nH]1 (single isomer, unassigned) [Example 158]; 1.2
CCOc1cccc(OC)c1S(=O)(=O)Nc1noc2cc(Nc3cc[nH]n3)c(OC)cc12; 0.5

Batch lookup, Ki per entry.
1. CCc1cnc(Nc2cc3onc(NS(=O)(=O)c4c(OC)cccc4OC)c3cc2OC)nc1
2. COc1cc2c(NS(=O)(=O)c3c(OC)cccc3OC)noc2cc1Nc1cc(C(C)CCO)[nH]n1 (stereo not shown)
3. COc1cc2c(NS(=O)(=O)c3c(OC)cc(-c4cnn(C)c4)cc3OC)noc2cc1Nc1cc(C2CC2)n[nH]1
4. COc1cc2c(NS(=O)(=O)c3c(OC)cccc3OC)noc2cc1Nc1ncn(C)n1
5. COc1cc2c(NS(=O)(=O)c3c(OC)cc(C4CN(C)CCC4(F)F)cc3OC)noc2cc1Nc1cc(C2CC2)n[nH]1 (single isomer, unassigned)
6. CCc1ccnc(Nc2cc3onc(NS(=O)(=O)c4c(OC)cccc4OC)c3cc2OC)n1
7. COc1cc2c(NS(=O)(=O)c3c(OC)cc(-c4cc5n(n4)CCOC5)cc3OC)noc2cc1Nc1cc(C2CC2)n[nH]1

[132, 27, 0.8, 3, 0.4, 11.7, 0.4]

Look up and state reported Ki for CCN1CCOC(c2cc(OC)c(S(=O)(=O)Nc3noc4cc(Nc5cc(C6CC6)n[nH]5)c(OC)cc34)c(OC)c2)C1 (single isomer, unassigned) [Example 157] 2.5

----------
# Target under test: KAT6A Full length enzyme (Homo sapiens (Human))
# Sequence (Q92794 other isoform, or with tags, fused parts or gaps): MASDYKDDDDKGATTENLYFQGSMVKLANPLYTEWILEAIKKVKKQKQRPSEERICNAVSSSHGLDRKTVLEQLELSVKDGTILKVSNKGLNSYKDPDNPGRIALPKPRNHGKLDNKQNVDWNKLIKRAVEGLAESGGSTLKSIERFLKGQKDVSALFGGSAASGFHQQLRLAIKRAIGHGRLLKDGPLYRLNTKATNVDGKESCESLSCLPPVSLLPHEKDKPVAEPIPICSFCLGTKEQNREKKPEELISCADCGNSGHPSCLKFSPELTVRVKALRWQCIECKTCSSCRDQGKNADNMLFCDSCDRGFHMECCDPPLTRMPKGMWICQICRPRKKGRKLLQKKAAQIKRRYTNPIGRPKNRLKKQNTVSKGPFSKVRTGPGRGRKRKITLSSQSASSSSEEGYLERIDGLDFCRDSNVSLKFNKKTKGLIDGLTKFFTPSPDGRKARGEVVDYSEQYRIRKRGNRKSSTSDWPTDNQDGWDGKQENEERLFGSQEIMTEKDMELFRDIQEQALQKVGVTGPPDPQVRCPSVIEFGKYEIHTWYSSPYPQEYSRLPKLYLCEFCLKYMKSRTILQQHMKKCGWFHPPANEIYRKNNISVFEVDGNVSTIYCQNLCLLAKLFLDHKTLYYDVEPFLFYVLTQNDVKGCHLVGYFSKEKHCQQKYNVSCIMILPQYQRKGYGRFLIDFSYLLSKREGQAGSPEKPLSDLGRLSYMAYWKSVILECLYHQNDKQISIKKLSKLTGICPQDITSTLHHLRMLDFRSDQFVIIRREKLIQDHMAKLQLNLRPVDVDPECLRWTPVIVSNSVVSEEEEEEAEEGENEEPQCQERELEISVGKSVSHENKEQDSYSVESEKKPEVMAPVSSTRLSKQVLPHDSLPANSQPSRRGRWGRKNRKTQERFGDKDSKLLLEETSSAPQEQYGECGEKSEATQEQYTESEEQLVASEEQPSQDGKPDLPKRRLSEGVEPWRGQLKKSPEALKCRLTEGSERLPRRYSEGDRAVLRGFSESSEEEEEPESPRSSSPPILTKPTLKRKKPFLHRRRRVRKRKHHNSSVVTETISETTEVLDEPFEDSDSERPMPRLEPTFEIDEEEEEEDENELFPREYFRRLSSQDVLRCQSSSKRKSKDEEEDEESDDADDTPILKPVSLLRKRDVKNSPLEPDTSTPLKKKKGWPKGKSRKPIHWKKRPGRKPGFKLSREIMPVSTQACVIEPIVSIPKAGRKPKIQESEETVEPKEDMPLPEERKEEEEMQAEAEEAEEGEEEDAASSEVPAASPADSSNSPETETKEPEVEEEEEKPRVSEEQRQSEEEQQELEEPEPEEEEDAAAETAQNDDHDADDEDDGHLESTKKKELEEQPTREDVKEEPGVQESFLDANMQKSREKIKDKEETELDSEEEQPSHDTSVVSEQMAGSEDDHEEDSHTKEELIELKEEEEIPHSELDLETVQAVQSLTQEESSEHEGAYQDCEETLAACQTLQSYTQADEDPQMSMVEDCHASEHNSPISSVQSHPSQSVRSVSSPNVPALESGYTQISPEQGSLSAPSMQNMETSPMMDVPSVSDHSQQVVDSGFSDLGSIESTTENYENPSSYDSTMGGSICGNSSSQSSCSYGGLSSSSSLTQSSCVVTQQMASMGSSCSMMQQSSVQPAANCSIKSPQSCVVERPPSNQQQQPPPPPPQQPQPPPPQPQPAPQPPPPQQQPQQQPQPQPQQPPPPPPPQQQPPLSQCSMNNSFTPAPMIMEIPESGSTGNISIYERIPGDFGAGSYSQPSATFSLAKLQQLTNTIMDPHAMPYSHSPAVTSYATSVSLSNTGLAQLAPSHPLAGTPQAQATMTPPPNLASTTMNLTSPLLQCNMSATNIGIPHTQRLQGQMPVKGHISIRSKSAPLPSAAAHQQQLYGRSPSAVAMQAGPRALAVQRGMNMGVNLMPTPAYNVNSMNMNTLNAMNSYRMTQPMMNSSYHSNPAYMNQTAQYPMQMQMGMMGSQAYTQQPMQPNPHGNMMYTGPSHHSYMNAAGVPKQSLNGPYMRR
# Procedure text: KAT6A assay (SAMDI-MS acetylation of H3 1-21 peptide)
# Assay type: biochemical
# Assay setup: Morrison equation fit; replicate number in parentheses; read-out: KAT6A Ki (nM) (replicate number)
Provide the recorded log10(Ki) for the entries that follow.
Plainly stated, the numbers are log10 of Ki given in nM.

COc1cc2c(NS(=O)(=O)c3c(OC)cccc3OC)noc2cc1Nc1noc(C)n1; 1.20
CCOc1cc(C)ccc1S(=O)(=O)Nc1noc2cc(Nc3cc(C(C)C)[nH]n3)c(OC)cc12; 0.40
COc1cc2c(NS(=O)(=O)c3c(OC)cc(C4COCC(C)(C)O4)cc3OC)noc2cc1Nc1cc(C2CC2)n[nH]1 (single isomer, unassigned) [Example 183]; 0.32
COc1cccc(F)c1S(=O)(=O)Nc1noc2cc(Nc3cc(C4CC4)n[nH]3)c(F)c(OC)c12; 0.54

Batch lookup, log10(Ki) per entry.
1. COc1cc2c(NS(=O)(=O)c3c(OC)cc([C@H]4CCCN4C)cc3OC)noc2cc1Nc1cc(C2CC2)n[nH]1
2. COc1cc2c(NS(=O)(=O)c3c(OC)cc(C4C[C@H](F)CN4C)cc3OC)noc2cc1Nc1cc(C2CC2)n[nH]1 (stereo partly shown)

1. 0.40
2. 0.30

Consider the compound COc1cc2c(NS(=O)(=O)c3c(OC)cc(C4CCCCO4)cc3OC)noc2cc1Nc1cc(C2CC2)n[nH]1 (single isomer, unassigned) [Example 142] tested on KAT6A Full length enzyme (Homo sapiens (Human)); state its log10(Ki). -0.15
